biological target: Large T antigen (Simian virus 40) (UniProt P03070); assay: SV40 large T antigen inhibitors, biochemical (AID 1903); conditions: SV40 large T antigen ATPase/helicase inhibition assay; at 20 µM; active compounds read high
Sequence (P03070 whole entry, looked up): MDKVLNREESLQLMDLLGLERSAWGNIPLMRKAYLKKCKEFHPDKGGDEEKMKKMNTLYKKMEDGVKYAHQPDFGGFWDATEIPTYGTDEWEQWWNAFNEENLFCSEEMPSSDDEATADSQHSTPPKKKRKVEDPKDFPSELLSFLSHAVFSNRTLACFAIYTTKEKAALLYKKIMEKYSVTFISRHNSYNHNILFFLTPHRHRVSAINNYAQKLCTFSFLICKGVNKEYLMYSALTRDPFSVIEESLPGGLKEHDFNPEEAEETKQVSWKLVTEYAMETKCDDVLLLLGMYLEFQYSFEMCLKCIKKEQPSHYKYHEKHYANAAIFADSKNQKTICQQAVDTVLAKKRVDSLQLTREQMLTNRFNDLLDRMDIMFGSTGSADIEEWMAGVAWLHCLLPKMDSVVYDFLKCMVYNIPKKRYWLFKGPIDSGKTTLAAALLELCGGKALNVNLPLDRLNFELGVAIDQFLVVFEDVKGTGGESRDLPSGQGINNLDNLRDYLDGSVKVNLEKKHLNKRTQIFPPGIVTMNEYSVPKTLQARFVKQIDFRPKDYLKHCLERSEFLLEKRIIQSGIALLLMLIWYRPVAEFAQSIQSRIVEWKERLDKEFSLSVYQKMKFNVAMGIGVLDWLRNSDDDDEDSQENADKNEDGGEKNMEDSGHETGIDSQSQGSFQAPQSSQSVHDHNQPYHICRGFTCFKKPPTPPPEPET
In all, about 310,000 compounds went through this assay and about 1,200 (0.39%) were called active. Only a sample is shown. Potency and affinity values are given separately.
Listing: inhibition of selected molecules
Measured endpoint: inhibition

molecule="Cc1ccc(C2C3=C(CCCC3=O)Nc3[nH]c(=S)[nH]c(=O)c32)cc1 (centres undefined)" recorded_value="23.7% (inactive)"
molecule=O=C(N/N=C/c1c[nH]c2ccccc12)c1cccc(O)c1 recorded_value="16% (inactive)"
molecule=O=C(NN1C(=O)/C(=C/c2ccc(O)cc2)SC1=S)c1ccccc1O recorded_value="38% (inactive)"
molecule=C=CCn1c(-c2cccc(Cl)c2)n[nH]c1=S recorded_value="4.07% (inactive)"
molecule=O=C(COc1ccc(Cl)cc1)NC1=NN(c2ccccc2)C(=O)C1 recorded_value="18.7% (inactive)"
molecule="COC(=O)C1=C(C)Nc2[nH]c(=S)[nH]c(=O)c2C1c1ccc(O)cc1 (centres undefined)" recorded_value="26.6% (inactive)"
molecule=Cc1c2cc(O)c(=O)cc-2oc2cc(O)c(O)cc12 recorded_value="57.6% (inactive)"
molecule=COc1ccc(N=C2NC(=O)/C(=C/c3ccc(O)c(OC)c3)S2)cc1 recorded_value="28.3% (inactive)"
molecule=O=C1c2ccccc2C(=O)N1Cc1ccco1 recorded_value="4.84% (inactive)"
molecule=COC(=O)C1=C(C)N(CCc2ccccc2)C(=O)/C1=C\c1ccco1 recorded_value="10.5% (inactive)"
molecule=COc1cc(/C=C2/SC(=Nc3ccc(O)cc3)NC2=O)ccc1O recorded_value="37.7% (inactive)"
molecule=Cc1cc(C)nc(N/N=C/c2c[nH]c3ccccc23)n1 recorded_value="33.8% (inactive)"
molecule=COC(=O)[C@@H](Cc1c[nH]c2ccccc12)NC(=O)c1cc(=O)[nH]c2ccccc12 recorded_value="2.68% (inactive)"
molecule=O=C1N/C(=C/c2ccco2)C(=O)N1Cc1ccccc1F recorded_value="11.4% (inactive)"

---

molecular target: Large T antigen (Simian virus 40) (UniProt P03070); experiment: SV40 large T antigen inhibitors, biochemical (AID 1903); conditions: SV40 large T antigen ATPase/helicase inhibition assay; at 20 µM; active compounds read high
The campaign covered roughly 310,000 compounds. About 1,200 (0.39%) were called active. A selection follows. Results with a measured potency or affinity are listed apart.
Would you mind labelling by inhibition? At or over 10% is YES, under is NO.

molecule=Cc1cccc(NC(=S)NNc2cccc(Cl)c2)c1 classification=YES
molecule=CCCc1nc2ccc(NC(C)=O)cc2c(=O)n1Cc1ccccc1Cl classification=YES
molecule=Cc1ccc(S(=O)(=O)NC(=O)N(CCC#N)Cc2ccccc2)cc1 classification=YES
molecule=COc1ccc(N2C(=O)c3ccccc3NC23CCCC3)cc1 classification=NO
molecule=COc1ccc(NC(=O)CN(C)C(=O)c2cccc(S(=O)(=O)N3CCN(Cc4ccccc4)CC3)c2)cc1 classification=NO
molecule=Cn1c(N)c(C(=O)COC(=O)c2ccc(S(=O)(=O)N3CCCCC3)cc2)c(=O)n(C)c1=O classification=NO
molecule=COc1ccccc1CNC(c1ccccc1)c1ccccc1 classification=YES
molecule=O=C(c1ccc(Cl)cc1)c1oc2ccccc2c1CS(=O)(=O)c1ccccc1 classification=NO
molecule=CC(C)c1ccc2[nH]c(O)c(N=NC(=O)c3cccc(S(=O)(=O)Nc4ccccc4Cl)c3)c2c1 classification=NO
molecule="S=C(NCC1CCCO1)N1CCN(c2ccccc2)CC1 (stereo unspecified)" classification=NO
molecule=Cc1cc(-c2cc(-c3ccc(Cl)cc3)on2)nc(NCC2CC2)n1 classification=YES
molecule="CCN1C(=O)CC(c2ccc(OC(C)C)cc2)C1=O (stereo unspecified)" classification=NO
molecule=O=C(O)COc1ccccc1/C=N/NC(=O)CN1CCN(Cc2ccccc2Cl)CC1 classification=NO
molecule=OCCNc1nc(Nc2ccc(Br)cc2)nc2ccccc12 classification=NO
molecule="COC(CN(C)C(C(=O)NC1CCCCC1)c1ccccc1)OC (stereo unspecified)" classification=NO
molecule=Nc1ccc(Nc2ccccc2)c(Cl)c1 classification=YES
molecule=CN(C)/N=C/c1ccc(N2CCOCC2)cc1 classification=YES
molecule=Nn1c(SCC(=O)N2CCCCCC2)nnc1-c1ccncc1 classification=NO
molecule=Cc1ccc(S(=O)(=O)N2CCN(CC(=O)N/N=C\c3ccncc3)CC2)cc1 classification=YES
molecule=[C-]#[N+][C@H](O[C@@H]1O[C@H](CO)[C@@H](O)[C@H](O)[C@H]1O)c1ccccc1 classification=YES
molecule="N#CC1=C2SCN(Cc3ccco3)CN2C(=O)CC1c1cccc2ccccc12 (stereo unspecified)" classification=YES
molecule=N#Cc1ccc(/C=N/NC(=S)Nc2ccc(S(=O)(=O)N3CCOCC3)cc2)cc1 classification=YES
molecule=Cc1cc(C)cc(Nc2ccc(C(=O)O)cc2N)c1 classification=YES
molecule="COc1cc(O)c(C(CC(=O)N2CCCC(C)C2)c2ccc3c(c2)OCO3)c(OC)c1 (stereo unspecified)" classification=NO
molecule=OCCNc1nc(Nc2ccccc2)nc2ccccc12 classification=NO
